# Test system: 883617-216-R-J1-PDC complex spheroid viability
# assayExplanation: Anticancer human tumor 883617-216-R-J1-PDC patient-derived bladder carcinoma cell line growth inhibition [POLQ]
# measurementContext: second compound 0.0316 µM; first compound 0.000316 µM; stronger effect = lower value
Measured viability, T/C values are reported for all entries that follow.
Write down the numeric answer in % and omit the unit.

Example molecules with recorded viability, T/C:
>  <molecule>
Cn1ncnc1[C@H]1c2n[nH]c(=O)c3cc(F)cc(c23)N[C@@H]1c1ccc(F)cc1 + Nc1ccc(C#CCN(C(=O)Cc2ncc(C(F)(F)F)cc2C(F)(F)F)c2ccc(F)cc2)nn1

>  <viability, T/C / %>
87.9

$$$$
>  <molecule>
CC[C@@]1(O)C(=O)OCc2c1cc1n(c2=O)Cc2cc3c(CN(C)C)c(O)ccc3nc2-1 + Cc1cccc(N(C)C(=O)C2C(O)CCN2c2nc(C)cc(C(F)(F)F)c2C#N)c1

>  <viability, T/C / %>
96.3

$$$$

Prompt: Fill in reported viability, T/C for this entry: Cn1ncnc1[C@H]1c2n[nH]c(=O)c3cc(F)cc(c23)N[C@@H]1c1ccc(F)cc1 + COC1C(OC(N)=O)C(O)C(Oc2ccc3c(O)c(NC(=O)c4ccc(O)c(CC=C(C)C)c4)c(=O)oc3c2C)OC1(C)C
Completion: 103

---

# Test system: 883617-216-R-J1-PDC complex spheroid viability
# assayExplanation: Anticancer human tumor 883617-216-R-J1-PDC cell line growth inhibition [POLQ];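 also: spheroids exposed to compounds for seven days before readout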;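 as to viability, T/C: 100% = DMSO vehicle control viability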
# measurementContext: second compound 0.0316 µM; first compound 0.0316 µM; stronger effect = lower value
measurementKind: viability, T/C

>  <compound>
C=CC(=O)N1CCN(c2nc(=O)n(-c3c(C)ccnc3C(C)C)c3nc(-c4c(O)cccc4F)c(F)cc23)C(C)C1 (stereo not given) + Nc1ccc(C#CCN(C(=O)Cc2ncc(C(F)(F)F)cc2C(F)(F)F)c2ccc(F)cc2)nn1

>  <viability, T/C>
71.3%

$$$$
>  <compound>
COc1cccc2c1C(=O)c1c(O)c3c(c(O)c1C2=O)CC(O)(C(=O)CO)CC3OC1CC(N)C(O)C(C)O1 (stereo not given) + COC1C(OC(N)=O)C(O)C(Oc2ccc3c(O)c(NC(=O)c4ccc(O)c(CC=C(C)C)c4)c(=O)oc3c2C)OC1(C)C

>  <viability, T/C>
62.3%

$$$$
>  <compound>
CNCc1ccc(-c2[nH]c3cc(F)cc4c3c2CCNC4=O)cc1 + Nc1ccc(C#CCN(C(=O)Cc2ncc(C(F)(F)F)cc2C(F)(F)F)c2ccc(F)cc2)nn1

>  <viability, T/C>
93.8%

$$$$
>  <compound>
O=C(c1cc(Cc2n[nH]c(=O)c3ccccc23)ccc1F)N1CCN(C(=O)C2CC2)CC1 + Cc1cccc(N(C)C(=O)C2C(O)CCN2c2nc(C)cc(C(F)(F)F)c2C#N)c1

>  <viability, T/C>
111%

$$$$
>  <compound>
CCc1c2c(nc3ccc(O)cc13)-c1cc3c(c(=O)n1C2)COC(=O)[C@]3(O)CC + Cc1cccc(N(C)C(=O)C2C(O)CCN2c2nc(C)cc(C(F)(F)F)c2C#N)c1

>  <viability, T/C>
52.8%

$$$$
>  <compound>
O=c1[nH]cc(F)c(=O)[nH]1 + COC1C(OC(N)=O)C(O)C(Oc2ccc3c(O)c(NC(=O)c4ccc(O)c(CC=C(C)C)c4)c(=O)oc3c2C)OC1(C)C

>  <viability, T/C>
106%

$$$$
>  <compound>
CC1COCCN1c1cc(C2(S(C)(=N)=O)CC2)nc(-c2ccnc3[nH]ccc23)n1 (stereo not given) + COC1C(OC(N)=O)C(O)C(Oc2ccc3c(O)c(NC(=O)c4ccc(O)c(CC=C(C)C)c4)c(=O)oc3c2C)OC1(C)C

>  <viability, T/C>
89%

$$$$
>  <compound>
COc1cc(C2c3cc4c(cc3C(OC3OC5COC(C)OC5C(O)C3O)C3COC(=O)C23)OCO4)cc(OC)c1O (stereo not given) + COC1C(OC(N)=O)C(O)C(Oc2ccc3c(O)c(NC(=O)c4ccc(O)c(CC=C(C)C)c4)c(=O)oc3c2C)OC1(C)C

>  <viability, T/C>
96.1%

$$$$
>  <compound>
C#Cc1c(F)ccc2cc(O)cc(-c3ncc4c(N5CC6CCC(C5)N6)nc(OCC56CCCN5CC(F)C6)nc4c3F)c12 (stereo not given) + COC1C(OC(N)=O)C(O)C(Oc2ccc3c(O)c(NC(=O)c4ccc(O)c(CC=C(C)C)c4)c(=O)oc3c2C)OC1(C)C

>  <viability, T/C>
90.3%

$$$$

Please examine the following record next.
Prompt: Give reported viability, T/C for O=C(c1cc(Cc2n[nH]c(=O)c3ccccc23)ccc1F)N1CCN(C(=O)C2CC2)CC1 + COC1C(OC(N)=O)C(O)C(Oc2ccc3c(O)c(NC(=O)c4ccc(O)c(CC=C(C)C)c4)c(=O)oc3c2C)OC1(C)C (883617-216-R-J1-PDC complex spheroid viability)
Completion: 106%

---

viability, T/C by entry:
# System: 883617-216-R-J1-PDC complex spheroid viability
# assayExplanation: Anticancer human tumor 883617-216-R-J1-PDC cell line growth inhibition [POLQ];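 also: spheroids exposed to compounds for seven days before readout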;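 as to viability, T/C: 100% = DMSO vehicle control viability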
# measurementContext: second compound 0.0316 µM; first compound 0.0316 µM; stronger effect = lower value
Field format: number, assumed %, no unit text.

>  <compound>
CCc1cc2c(N3CCc4c(cc(Cn5ccnc5)cc4-c4cn(C)nc4C(F)(F)F)C3=O)cc(C)nc2c(OC)n1 + Cc1cccc(N(C)C(=O)C2C(O)CCN2c2nc(C)cc(C(F)(F)F)c2C#N)c1

>  <assayedTarget>
883617-216-R-J1-PDC complex spheroid viability

>  <assayResult>
87.4

$$$$

Prompt: Report viability, T/C for CC[C@@]1(O)C(=O)OCc2c1cc1n(c2=O)Cc2cc3c(CN(C)C)c(O)ccc3nc2-1 + Cc1cccc(N(C)C(=O)C2C(O)CCN2c2nc(C)cc(C(F)(F)F)c2C#N)c1
Completion: 57.5

Prompt: Answer with the recorded viability, T/C for the compound listed here: COc1cccc(OCCCN)c1-c1cc(Nc2cnc(C#N)cn2)n[nH]1 + COC1C(OC(N)=O)C(O)C(Oc2ccc3c(O)c(NC(=O)c4ccc(O)c(CC=C(C)C)c4)c(=O)oc3c2C)OC1(C)C
Completion: 46.9

Prompt: Recall and state the measured viability, T/C for CCc1cc2c(N3CCc4c(cc(Cn5ccnc5)cc4-c4cn(C)nc4C(F)(F)F)C3=O)ccnc2c(OC)n1 + Nc1ccc(C#CCN(C(=O)Cc2ncc(C(F)(F)F)cc2C(F)(F)F)c2ccc(F)cc2)nn1 .
Completion: 109

Prompt: For the compound COc1cc2cc(C(=O)CCC(=O)O)sc2cc1OC + Cc1cccc(N(C)C(=O)C2C(O)CCN2c2nc(C)cc(C(F)(F)F)c2C#N)c1 , give its measured viability, T/C value.
Completion: 99.1

Prompt: Quote viability, T/C reported for O=C(c1cc(Cc2n[nH]c(=O)c3ccccc23)ccc1F)N1CCN(C(=O)C2CC2)CC1 + Nc1ccc(C#CCN(C(=O)Cc2ncc(C(F)(F)F)cc2C(F)(F)F)c2ccc(F)cc2)nn1 please.
Completion: 90

Prompt: Return reported viability, T/C. Input compound: Cn1ncnc1[C@H]1c2n[nH]c(=O)c3cc(F)cc(c23)N[C@@H]1c1ccc(F)cc1 + Nc1ccc(C#CCN(C(=O)Cc2ncc(C(F)(F)F)cc2C(F)(F)F)c2ccc(F)cc2)nn1
Completion: 72

Prompt: Return the recorded viability, T/C value; entry: O=c1[nH]cc(F)c(=O)[nH]1 + Cc1cccc(N(C)C(=O)C2C(O)CCN2c2nc(C)cc(C(F)(F)F)c2C#N)c1
Completion: 97

Prompt: For the compound Nc1ccn(C2OC(CO)C(O)C2(F)F)c(=O)n1 (configuration not stated) + Cc1cccc(N(C)C(=O)C2C(O)CCN2c2nc(C)cc(C(F)(F)F)c2C#N)c1 , report viability, T/C.
Completion: 35.8

Prompt: Identify viability, T/C associated with the compound COc1cccc(OCCCN)c1-c1cc(Nc2cnc(C#N)cn2)n[nH]1 + Cc1cccc(N(C)C(=O)C2C(O)CCN2c2nc(C)cc(C(F)(F)F)c2C#N)c1
Completion: 61.9

Prompt: Retrieve viability, T/C measured for COc1cc2cc(C(=O)CCC(=O)O)sc2cc1OC + Nc1ccc(C#CCN(C(=O)Cc2ncc(C(F)(F)F)cc2C(F)(F)F)c2ccc(F)cc2)nn1 and print it.
Completion: 109

Prompt: Read off the recorded viability, T/C for Cn1ncnc1[C@H]1c2n[nH]c(=O)c3cc(F)cc(c23)N[C@@H]1c1ccc(F)cc1 + COC1C(OC(N)=O)C(O)C(Oc2ccc3c(O)c(NC(=O)c4ccc(O)c(CC=C(C)C)c4)c(=O)oc3c2C)OC1(C)C
Completion: 72.8

---

# Tested on: 883617-216-R-J1-PDC complex spheroid viability
# assayExplanation: Anticancer human tumor 883617-216-R-J1-PDC cell line growth inhibition [POLQ];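 also: spheroids exposed to compounds for seven days before readout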
# measurementContext: curve of first compound; second compound 0.0316 µM
pIC50: −log10 of the molar value.
measurementKind: pIC50

Reference set (4 entries):
>  <molecule>
C#Cc1c(F)ccc2cc(O)cc(-c3ncc4c(N5CC6CCC(C5)N6)nc(OCC56CCCN5CC(F)C6)nc4c3F)c12 (stereo not given) + COC1C(OC(N)=O)C(O)C(Oc2ccc3c(O)c(NC(=O)c4ccc(O)c(CC=C(C)C)c4)c(=O)oc3c2C)OC1(C)C

>  <assayResult>
< 5.00

$$$$
>  <molecule>
C=CC(=O)N1CCN(c2nc(=O)n(-c3c(C)ccnc3C(C)C)c3nc(-c4c(O)cccc4F)c(F)cc23)C(C)C1 (stereo not given) + Nc1ccc(C#CCN(C(=O)Cc2ncc(C(F)(F)F)cc2C(F)(F)F)c2ccc(F)cc2)nn1

>  <assayResult>
< 5.00

$$$$
>  <molecule>
COc1cc2cc(C(=O)CCC(=O)O)sc2cc1OC + Cc1cccc(N(C)C(=O)C2C(O)CCN2c2nc(C)cc(C(F)(F)F)c2C#N)c1

>  <assayResult>
< 5.00

$$$$
>  <molecule>
Cn1ncnc1[C@H]1c2n[nH]c(=O)c3cc(F)cc(c23)N[C@@H]1c1ccc(F)cc1 + COC1C(OC(N)=O)C(O)C(Oc2ccc3c(O)c(NC(=O)c4ccc(O)c(CC=C(C)C)c4)c(=O)oc3c2C)OC1(C)C

>  <assayResult>
< 7.00

$$$$

// below: pIC50 requested for another molecule
Prompt: Name the recorded pIC50 of the molecule listed here: CC(C)n1c(=O)n(C)c2cnc3cc(F)c(-c4ccc(OCCCN5CCCCC5)nc4)cc3c21 + COC1C(OC(N)=O)C(O)C(Oc2ccc3c(O)c(NC(=O)c4ccc(O)c(CC=C(C)C)c4)c(=O)oc3c2C)OC1(C)C
Completion: < 5.00
